Source listed as PubChem BioAssay.

- TGT: L-lactate dehydrogenase (Plasmodium falciparum (isolate CDC / Honduras)) (UniProt Q27743)
- Sequence (Q27743 whole entry, looked up): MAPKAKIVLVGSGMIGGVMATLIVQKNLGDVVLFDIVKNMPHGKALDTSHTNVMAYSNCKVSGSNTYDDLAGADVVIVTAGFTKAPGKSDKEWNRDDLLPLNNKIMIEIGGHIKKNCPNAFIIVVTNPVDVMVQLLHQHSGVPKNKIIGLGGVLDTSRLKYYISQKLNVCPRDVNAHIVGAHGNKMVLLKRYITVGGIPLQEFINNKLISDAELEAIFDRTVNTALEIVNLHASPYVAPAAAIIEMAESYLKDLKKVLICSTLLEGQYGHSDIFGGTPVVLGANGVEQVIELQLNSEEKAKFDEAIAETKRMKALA
- METHOD_SUMMARY: PfLDH activity inhibition – cell lysate, 3D7 strain, counter-screen for P. falciparum growth inhibition project (AID 2304);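 note: 0% = vehicle and 100% = reference inhibitor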
- CONDITIONS_USED: P. falciparum 3D7 crude extract, LDH APAD/NBT absorbance; at 2 µM; hits give high values
Listing of recorded inhibition by entry.

MOLECULE	UNIT_OF_MEASUREMENT	inhibition
CNC(=O)c1c(NC(=O)c2cccs2)sc2c1CCCC2	%	-1
CN(C)CCCOc1ccc(CNCc2cccc(Oc3ccc(Cl)cc3)c2)cc1	%	0
CCOc1cc(C)ccc1N1CCN(CCCCNC(=O)c2ccc(NC(=O)c3ccc(Cl)cc3)cc2)CC1	%	-5
OC1CCCN(Cc2ccc(-c3ccc(-c4nc5ccc(F)cc5[nH]4)cc3)cc2)C1 (centres undefined)	%	2
Cc1ccc(O)c(Nc2c3c(c(C#N)c4nc5ccccc5n24)CCC3)c1	%	-3
O=C(NC1CC1)c1ccc(N2CCC(Oc3ccc(F)cc3)CC2)nc1	%	-1
N#Cc1ccc(NC(=O)Nc2ccc3c(c2)CCN(C2CCC2)CC3)cc1	%	-8
Cc1ccc(NC(=O)Cc2noc(CC3CCCN3C(=O)N[C@@H](C)c3ccccc3)n2)cc1 (some centres undefined)	%	-1
CN1CCCC(CN2CCN(Cc3ccc(-c4ccc(-c5nc6ccccc6[nH]5)cc4)cc3)CC2)C1 (centres undefined)	%	0
O=C(NCc1cccc2ccccc12)[C@@H]1CCCN1C(=O)c1ccc(O)c(-c2ccc(Cl)c(Cl)c2)c1	%	2
COc1ccc(NC(=O)c2ccc(-c3nc(-c4ccccc4)cs3)cc2)cc1N1CCN(C)CC1	%	-3
COc1ccc(Br)cc1/C=C/C(=O)Nc1cccc(C2CCN(C)CC2)c1	%	-2
C[C@H](NC(=O)[C@H](CCCCNC(=O)OC(C)(C)C)NC(=O)OC(C)(C)c1ccc(-c2ccccc2)cc1)C(=O)OCc1ccccc1	%	-7
O=C(CCNc1ccnc(NCCc2ccccc2)n1)Nc1ccccc1	%	2
COc1cccc(C(O)CNc2ccnc(Nc3cccc(-c4csc(C)n4)c3)n2)c1 (centres undefined)	%	-8
O=c1cc(NCCCNCc2ccc(C(F)(F)F)cc2F)[nH]c2ccccc12	%	8
NC(=O)c1cc2nc(NC3CCC3)nc(Nc3cccc4[nH]ncc34)c2[nH]1	%	4
CN1CCC(N(Cc2ccc(-c3ccc(C(F)(F)F)cc3)nc2)C(=O)Cn2c(CCc3cccc(F)c3F)cc(=O)c3ccccc32)CC1	%	3
N#Cc1ccc2c(c1)CN(C1CCC(NC(=O)/C=C/c3cc(C(F)(F)F)cc(C(F)(F)F)c3)CC1)CCC2 (centres undefined)	%	-4

###

- METHOD_SUMMARY: HepG2 cytotoxicity, primary screen, cytotoxicity control for P. falciparum antimalarial project, cell-based, ATP luminescence (AID 2303);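 note: 0% = DMSO wells and 100% = digitonin-killed cells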
- CONDITIONS_USED: HepG2 viability, 24-48 h, at 10 µM, hits give high values
Listing of recorded inhibition by entry.
PROPERTY_NAME: inhibition (%)

COMPOUND	TEST_VALUE
S=c1nc(-c2ccccc2)n2ccsc2n1	3
CN1C(C)(C)CC(NC(=O)c2ccc(-c3cc4cc(Cl)c(Cl)cc4[nH]3)o2)CC1(C)C	21
CC(C)n1ncc2c(C(=O)N3CCCC4CCCCC43)cc(C3CC3)nc21 (stereo not given)	7
O=C(Nc1ccc2c(c1)CCN2C1CCN(Cc2cccc(F)c2F)C1)c1ccco1 (stereo not given)	-4
Cc1cc(N(C)C)nc(Nc2ccc(NC(=O)c3ccc(Br)o3)cc2)n1	1
C=CCN1Cc2c(O)cccc2C(c2ccc(O)c(O)c2)C1 (stereo not given)	-5
CN1CCN(c2cc(-c3cccc(C(F)(F)F)c3)nc(-c3ccncc3)n2)CC1	38
O=c1cc(NCCCNCc2ccc(C(F)(F)F)cc2F)[nH]c2ccccc12	1
Oc1ccc2[nH]c(-c3cccc(F)c3)nc2c1CN1CCCC1	0
N#Cc1cccc(C(O)CN(Cc2ccccc2)Cc2ccccc2)c1 (stereo not given)	12
CCC(=O)N(c1ccccc1)C1CCN(CCCC(NC(=O)Nc2cc(C(F)(F)F)cc(C(F)(F)F)c2)c2ccc(Cl)c(Cl)c2)CC1 (stereo not given)	29
O=C1COc2ccc3ccccc3c21	-3
CCN(CC)Cc1cccc(-c2cc3c(-c4ccc(C(=O)O)c(C(C)C)c4)ccnc3[nH]2)c1OC	57
Cc1cccc2[nH]c(-c3cccc(-c4cccc(NC(=O)c5ccoc5)c4)c3)nc12	19
Cc1cc(NN=Cc2ccc(Cl)cc2)c2ccc(F)cc2n1	6
CCOc1ccc(C(C)NC(=O)Cc2ccccc2F)cc1OCC (stereo not given)	15
CCN1CCCC1CNC(=O)c1cc2c(-c3ccc(Cl)cc3)nn(C)c2s1 (stereo not given)	27
COc1c(C2CCN(CCCCNC(=O)c3ccc(-c4ccc(C#N)cc4)c(O)c3)CC2)ccc2c1CCCC2	35
Cc1ccc(-c2nc3ccc(C(=O)NC4CCC(N5CCCc6ccc(C#N)cc6C5)CC4)cc3[nH]2)cc1 (stereo not given)	23
CCOC(=O)C1=C(C)NC(C)=C(C(=O)OCC)C1(C(=O)OCc1ccccc1)c1cccc(C(F)(F)F)c1	-17
N#Cc1cccc(NC(=O)NC2CCN(CCCCCNC(=O)[C@@H]3C[C@H]3c3ccc(Cl)c(Cl)c3)CC2)c1	36
CCCNCc1ccc(-c2ccc(CN(C(=O)c3nn(-c4ccccc4)nc3C)C(C)CN(C)C)cc2)nc1 (stereo not given)	27
COc1ccc(-c2nc(NC(=O)CS(=O)(=O)c3ccc(C)cc3)sc2C)cc1	56
COc1ccc(OC)c2c1CCN(CCN1CCC(C(=O)Nc3ccc(C(=O)Nc4ccc(Cl)cc4)cc3)CC1)C2	25
COc1ccc2nccc([C@@H](O)CN3CCC(NCc4cc5ccccc5nn4)CC3)c2c1	5
COCCOc1ccc(C(F)(F)F)cc1NC(=O)Cc1c(F)cccc1Cl	18
CCCCn1c(Sc2ccc(C#N)c([N+](=O)[O-])c2)nnc1-c1cccc(Cl)c1	30
CCOC(=O)c1cnc2c(OC)cc(OC)c(Cl)c2c1Nc1ccccc1	13
CC(C)c1ccc(NC(=O)Nc2ccc(Cn3ncc(N4CCCNCC4)c(Cl)c3=O)cc2)cc1	11
CN1CCCC1CCCOC(=O)c1ccc(N)cc1 (stereo not given)	8
CCC1(C)CC(CCNCc2ccccc2O)(c2ccccc2OC)CCO1 (stereo not given)	10
COc1cc(C(=O)Nc2ccc3nc(N4CCN(C)CC4)cc(C)c3c2)cc(OC)c1OC	18
O=C(Nc1ccc2c(c1)CCN(C1CCC1)CC2)c1ccc(-c2cn3ccccc3n2)cc1	13
CCCCCC(C)C(C)c1cc(OC(N)=O)c2c(c1)OC(C)(C)C=C2c1ccncc1 (stereo not given)	81
Cc1cnc(N2CCN(CCCN3CCCC3)CC2)nc1Oc1ccc(-n2ccnc2)cc1	12
CCCNC(=O)C1Cc2c([nH]c3ccc(Br)cc23)C2(CCN(CCc3ccccc3)CC2)N1 (stereo not given)	16
O=C(Cn1cnc2c(nnn2Cc2ccccc2F)c1=O)Nc1ccc2c(c1)OCCO2	-6
CCC(CSC1CCCCC1)N(C)CCN(C)C(CC)CSC1CCCCC1 (stereo not given)	84
COc1ccc(C2CC(c3cccs3)=NN2C(=O)CNc2cccc(C#N)c2)cc1OC (stereo not given)	8
CCOc1cc(N)c2nc3ccc([N+](=O)[O-])cc3cc2c1	73

###

Listing of recorded inhibition by entry.
- TGT: L-lactate dehydrogenase (Plasmodium falciparum (isolate CDC / Honduras))
- METHOD_SUMMARY: PfLDH activity inhibition – cell lysate, 3D7 strain, counter-screen for P. falciparum growth inhibition project (AID 2304);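 note: 0% = vehicle and 100% = reference inhibitor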
- CONDITIONS_USED: P. falciparum 3D7 crude extract, LDH APAD/NBT absorbance; at 2 µM; hits give high values

COMPOUND	TGT	inhibition, %
CCCCNc1nc(NCCCC)c2c(C)c(Cc3ccccc3)c(NCCCC)nc2n1	L-lactate dehydrogenase (Plasmodium falciparum (isolate CDC / Honduras))	-10
COC(=O)CCCOc1cc(Cc2cnc(N)nc2N)cc(OC)c1OC	L-lactate dehydrogenase (Plasmodium falciparum (isolate CDC / Honduras))	-6
Cc1oc(-c2ccccc2)nc1CCOc1ccc(C[C@H](Nc2ccccc2C(=O)c2ccccc2)C(=O)NCc2ccccn2)cc1	L-lactate dehydrogenase (Plasmodium falciparum (isolate CDC / Honduras))	-1
CC(C)CN1CCCN(Cc2cccc(NC(=O)c3ccc(Cl)c(Cl)c3)c2)CC1	L-lactate dehydrogenase (Plasmodium falciparum (isolate CDC / Honduras))	0
CNC(=O)c1cnc(Nc2ccc(OCC(O)CN(C)C)cc2)nc1Nc1cccc(OC(C)C)c1 (centres undefined)	L-lactate dehydrogenase (Plasmodium falciparum (isolate CDC / Honduras))	1
Cc1ccc2[nH]ncc2c1N(CC1CCCCC1)c1ccnc(Nc2ccc(OCC(O)CN3CC=CCC3)cc2)n1 (centres undefined)	L-lactate dehydrogenase (Plasmodium falciparum (isolate CDC / Honduras))	-4
Cc1cccc2[nH]c(-c3ccc(-c4ccc(CN5CCCC(O)C5)cc4)cc3)nc12 (centres undefined)	L-lactate dehydrogenase (Plasmodium falciparum (isolate CDC / Honduras))	6
O=C(Nc1cccc(F)c1)c1ccc(C(=O)NC2CCN(CC3CCCCC3)C2)cc1 (centres undefined)	L-lactate dehydrogenase (Plasmodium falciparum (isolate CDC / Honduras))	-3
CC1=C(C(=O)OC(C)C)C(c2ccccc2Cl)C2=C(CC(c3ccccc3)CC2=O)N1 (centres undefined)	L-lactate dehydrogenase (Plasmodium falciparum (isolate CDC / Honduras))	1
Nc1cccc(CNCc2cccc(-c3cccc(-c4nc5ccccc5[nH]4)c3)c2)c1	L-lactate dehydrogenase (Plasmodium falciparum (isolate CDC / Honduras))	-7
O=S(=O)(c1cccc(F)c1)c1ccc(Nc2ncnc3cc(Br)sc23)cc1Cl	L-lactate dehydrogenase (Plasmodium falciparum (isolate CDC / Honduras))	-2
Oc1ccccc1CN1CCC2(CCCN(Cc3ccccc3F)C2)C1 (centres undefined)	L-lactate dehydrogenase (Plasmodium falciparum (isolate CDC / Honduras))	-2
CS(=O)(=O)N(c1ccc(F)cc1)c1cc(C(=O)N[C@@H](Cc2ccccc2)[C@H](O)CNCc2cccc(C(F)(F)F)c2)cc(N2CCCC2=O)c1	L-lactate dehydrogenase (Plasmodium falciparum (isolate CDC / Honduras))	-1
O=C(Cc1ccc(F)cc1)NC1CCN(c2ccnc3cc(Cl)ccc23)C1 (centres undefined)	L-lactate dehydrogenase (Plasmodium falciparum (isolate CDC / Honduras))	1
Cc1ccc(NC(=O)C(C)Sc2n[nH]c(-c3ccccc3Br)n2)cc1 (centres undefined)	L-lactate dehydrogenase (Plasmodium falciparum (isolate CDC / Honduras))	-4
O=C(NCCNc1nc(NCCNC(=O)Nc2ccccc2)c2ccc(=O)n(-c3c(F)cccc3F)c2n1)Nc1ccccc1	L-lactate dehydrogenase (Plasmodium falciparum (isolate CDC / Honduras))	6
O=C(NCc1cccc(Cl)c1)c1ccc(CNC2CCN(Cc3ccccc3)CC2)cc1	L-lactate dehydrogenase (Plasmodium falciparum (isolate CDC / Honduras))	5
Cc1noc(C)c1-c1ccc2c(Nc3cccc4c3-c3ccccc3C4=O)c(C(=O)NCc3ccccc3I)cnc2c1	L-lactate dehydrogenase (Plasmodium falciparum (isolate CDC / Honduras))	2
Cc1ccc(CCNCC(O)c2cccc(C(F)(F)F)c2)cc1 (centres undefined)	L-lactate dehydrogenase (Plasmodium falciparum (isolate CDC / Honduras))	0
